Property: Max; scope: individual binders
# Test system: T1, Cyno B7-H4-Fc (Cyno B7H4 ECD, FcTM_6His) (cynomolgus monkey)
# T1 construct: extracellular domain; also called cynomolgus B7-H4-Fc
# Test name: HTRF binding, human IgG1-TM
Outcome measure: Max

binder="ZY0EP0-C07 human IgG1-TM (antibody, V domains shown, also called ZY0EPO-C07) VH: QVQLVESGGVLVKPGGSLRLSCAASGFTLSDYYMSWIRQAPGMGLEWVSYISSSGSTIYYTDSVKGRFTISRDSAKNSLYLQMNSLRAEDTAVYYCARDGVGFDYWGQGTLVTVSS VL: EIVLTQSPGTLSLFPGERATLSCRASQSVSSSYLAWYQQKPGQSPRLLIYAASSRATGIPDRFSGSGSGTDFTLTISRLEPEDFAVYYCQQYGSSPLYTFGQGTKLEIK" outcome_measure=Max value_measured=890
binder="ZY0EQD-E02 human IgG1-TM (antibody, V domains shown) VH: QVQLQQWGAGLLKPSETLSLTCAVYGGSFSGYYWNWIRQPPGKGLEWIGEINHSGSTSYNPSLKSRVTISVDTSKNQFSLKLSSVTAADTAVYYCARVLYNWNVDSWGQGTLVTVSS VL: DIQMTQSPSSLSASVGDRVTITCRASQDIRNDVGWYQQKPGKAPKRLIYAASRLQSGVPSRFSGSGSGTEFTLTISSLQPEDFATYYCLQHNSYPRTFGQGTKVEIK" outcome_measure=Max value_measured=1100
binder="ZY0EOB-F05 human IgG1-TM (antibody, V domains shown) VH: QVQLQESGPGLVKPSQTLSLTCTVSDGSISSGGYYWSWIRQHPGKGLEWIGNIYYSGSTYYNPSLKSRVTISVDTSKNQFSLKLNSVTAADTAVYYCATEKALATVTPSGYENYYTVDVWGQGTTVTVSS VL: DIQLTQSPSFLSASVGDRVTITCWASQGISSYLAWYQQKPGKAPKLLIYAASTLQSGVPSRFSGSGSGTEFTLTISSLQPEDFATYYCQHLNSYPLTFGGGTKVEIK" outcome_measure=Max value_measured=1480
binder="ZY0EPQ-E02 human IgG1-TM (antibody, V domains shown) VH: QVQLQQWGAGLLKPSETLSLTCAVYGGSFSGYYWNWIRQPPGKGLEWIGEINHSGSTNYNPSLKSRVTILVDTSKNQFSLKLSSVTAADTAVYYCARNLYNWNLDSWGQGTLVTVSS VL: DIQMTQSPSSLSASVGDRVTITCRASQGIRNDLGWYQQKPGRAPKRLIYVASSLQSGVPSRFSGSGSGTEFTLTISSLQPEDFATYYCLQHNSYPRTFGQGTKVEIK" outcome_measure=Max value_measured=934

# credit: patent US20240239894A1
